I'd appreciate it if you could supply 10 µM (% DMSO) values for the items below.
tested on: expanded OPCs; assay: cells; settings: alamarBlue viability of expanded OPCs, compound at 10 µM, relative to DMSO control
Give bare numbers, in % DMSO.

Example compounds with recorded 10 µM (% DMSO):
{"compound": "CC(C)(C(=O)c1cccnc1)c1cccnc1 [Metyrapone]", "units.label": "% DMSO", "10 µM (% DMSO)": 93.4}
{"compound": "CCCc1cc(=O)[nH]c(=S)[nH]1 [Propylthiouracil]", "units.label": "% DMSO", "10 µM (% DMSO)": 90.8}
{"compound": "Nc1nc(O)c2ncn(COC(CO)CO)c2n1 [Ganciclovir]", "units.label": "% DMSO", "10 µM (% DMSO)": 106.5}

Take each entry in turn and give its 10 µM (% DMSO).
1. N[C@@H]1CON=C1O [Cycloserine]
2. CC(C)OC(=O)C(C)(C)Oc1ccc(C(=O)c2ccc(Cl)cc2)cc1 [Fenofibrate]

[out]
89.5
103.9

---

system: expanded OPCs; test: cells; details: Rattus norvegicus, 72 h, read-out: 10 µM (% DMSO), alamarBlue viability of expanded OPCs, compound at 10 µM, sheet All Tox data
I'd appreciate it if you could supply viability at 10 µM values for the items below.
One number for each entry, in %.

Example compounds with recorded viability at 10 µM:
{"compound": "Cc1onc(-c2ccccc2)c1-c1ccc(S(N)(=O)=O)cc1 [Valdecoxib]", "subject.of.test": "expanded OPCs", "measured.parameter": "viability at 10 µM", "units.label": "%", "numeric.result": 105}
{"compound": "CC(C(O)c1ccc(O)cc1)N1CCC(Cc2ccccc2)CC1 (centres unmarked) [Ifenprodil, reference compound]", "subject.of.test": "expanded OPCs", "measured.parameter": "viability at 10 µM", "units.label": "%", "numeric.result": 103}
{"compound": "COc1cc(-c2ccc(=O)[nH]n2)ccc1OC(F)F [Zardaverine]", "subject.of.test": "expanded OPCs", "measured.parameter": "viability at 10 µM", "units.label": "%", "numeric.result": 67.4}
{"compound": "CN(C)CCc1c[nH]c2ccc(Cn3cncn3)cc12 [Rizatriptan]", "subject.of.test": "expanded OPCs", "measured.parameter": "viability at 10 µM", "units.label": "%", "numeric.result": 86.3}
{"compound": "Cc1cccc(C)c1NC(=O)C(C)N (centres unmarked) [Tocainide]", "subject.of.test": "expanded OPCs", "measured.parameter": "viability at 10 µM", "units.label": "%", "numeric.result": 98}

Take each entry in turn and give its viability at 10 µM.
1. CNNCc1ccc(C(=O)NC(C)C)cc1 [Procarbazine]
2. CN1CCN(CCCN2c3ccccc3Sc3ccc(Cl)cc32)CC1 [Prochlorperazine, reference compound]
3. OCCN1C[C@H](O)[C@@H](O)[C@H](O)[C@H]1CO [Miglitol]
4. CN1CC[C@]23CCCC[C@H]2[C@H]1Cc1ccc(O)cc13 [Levorphanol]
5. CO[C@H]1/C=C/O[C@@]2(C)Oc3c(C)c(O)c4c(c3C2=O)C2=NC3(CCN(CC(C)C)CC3)NC2=C(NC(=O)/C(C)=C\C=C\[C@H](C)[C@H](O)[C@@H](C)[C@@H](O)[C@@H](C)[C@H](OC(C)=O)[C@@H]1C)C4=O [Rifabutin]
6. CC(C)(O)[C@@H]1[C@H]2OC(=O)[C@@H]1[C@]1(O)C[C@H]3O[C@]34C(=O)O[C@H]2[C@]14C [Picrotin]
7. CC1CNc2c(cccc2S(=O)(=O)N[C@@H](CCCNC(=N)N)C(=O)N2CC[C@@H](C)C[C@@H]2C(=O)O)C1 (some centres unmarked) [Argatroban]
8. OC[C@H]1O[C@@H](Oc2cc(O)cc(/C=C/c3ccc(O)cc3)c2)[C@H](O)[C@@H](O)[C@@H]1O [Polydatin]

[out]
96.6
12.6
90.3
74
37
85.6
93
113

Take each entry in turn and give its viability at 10 µM.
1. Cc1cc2c(s1)Nc1ccccc1N=C2N1CCN(C)CC1 [Olanzapine]
2. Cc1ncc([N+](=O)[O-])n1CCO [Metronidazole]
3. CC(O)(CS(=O)(=O)c1ccc(F)cc1)C(=O)Nc1ccc(C#N)c(C(F)(F)F)c1 (centres unmarked) [Bicalutamide]
4. COc1ccc2c(c1)c(CC(=O)O)c(C)n2C(=O)c1ccc(Cl)cc1 [Indomethacin]

[out]
30.2
79.3
119
87.1
